# experimental target: T1, recombinant human IL-17A-mFc protein (human, UniProt Q16552 24-155, Biotinylated before the blocking assays of Examples 9 and 12 (sites not given); disulfide-linked dimer through IL-17A and the Fc.)
# T1 construct: also called recombinant fusion protein IL-17A-mFc
# T1 sequence: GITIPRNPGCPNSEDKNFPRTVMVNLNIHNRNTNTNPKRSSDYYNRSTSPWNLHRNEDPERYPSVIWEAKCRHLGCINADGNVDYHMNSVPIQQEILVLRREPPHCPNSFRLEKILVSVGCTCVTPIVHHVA
# measurement description: ELISA, human IL-17A-mFc (0.5 µg/mL) coated, biotinylated anti-IgG4 detection
measured parameter: EC50 (mg/L)
Give bare numbers, in mg/L.

Please state EC50 for every binder in the list that follows.
1. chimeric antibody ch2 (antibody, V domains shown) VH: QIQLVQSGPELKKPGETVKISCKASGYIFTNYGMNWMKQAPGKGLKWMGWINDHTGEPTYADDFKGRFAFSLETSASTAYLQINNLKKEDTATYFCANYGFGYFDYWGQGTTLTVSS VL: DVVVTQTPLSLPVSLGDQASISCRSGQSLVHSNGHTYFHWYLQKPGQSPKLLIYKVSNRFSGVPDRFSGSGSGTDFTLKISRVEAEDLGIYFCSQSTHVPYTFGGGTKLEIK
2. chimeric antibody ch7 (antibody, V domains shown) VH: QVQLKESGPGLVAPSQSLSITCTVSGFSLINYDIHWLRQPPGKGLEWLGVIWAGGRTHSDSALMSRLSISKDNSKSQVFLNVHSLRPEDTAIYYCAREGGDYYKYLDFWGQGTTLTVSS VL: DVKMTQSPSSMYASLGERVTITCKASHDINSYLSWFQQKPGKSPKTLIYRANGLVDGVPSRFSGSGSGQDYSLTISSLEYEDMGVYYCLQYEMLPLTFGAGTKLELK
3. chimeric antibody ch4 (antibody, V domains shown) VH: QIQLVQSGPELKKPGETVKISCKASGYIFTNYGMNWMKQAPGKGLKWMGWINDHTGEPTYADDFKGRFAFSLETSASTAYLQINNLKKEDTATYFCANYGFGYFDYWGQGTTLTVSS VL: DVLMTQTPLSLPVSLGDQASISCRSSQSIVHSNGNTYLDWYLQKPGQSPKLLIYKVSNRFSGVPDRFSGSGSGTSFTLKISRVEAEDLGVYYCFQGSHFPTFGGGTKLEIK

1. 0.00517
2. 0.04
3. 0.0885

Requested field: EC50. Item: chimeric antibody ch16 (antibody, V domains shown) VH: DVQLQESGPGLVKPSQSLSLTCTVTGYSITSDYAWSWIRQFPGNKLEWMAFISYSGPTSYNPSLKSRVSITRDTSKNQFFLQLKSVTTEDTATYYCARGGDGDSFDYWGQGTTLTVSS VL: DVLMTQTPLSLPVSLGDQASISCRSSQSIVHSNGNTYLDWYLQKPGQSPKLLIYKVSNRFSGVPDRFSGSGSGTSFTLKISRVEAEDLGVYYCFQGSHFPTFGGGTKLEIK
0.0154
